System: SR
PROTOCOL TEXT: NCI tumour cell line growth inhibition, 48 h
Active and inactive are the calls of the source. Rule as the data show it: active = GI50 up to about 1.1 µM and inactive = higher.
Outcomes you can answer with include only these: class 1 for active, class 0 for inactive

Solved entries:
CSc1nnc2n1-c1ccccc1SCC2
class 0
COC(=O)CCC(=O)NC1=C(NCc2ccccc2)C(=O)c2ccccc2C1=O
class 0
COc1ccc(NC(=O)CC(=O)N2N=C(C)C(/N=N\c3ccc(S(=O)(=O)c4ccc(/N=N/C5C(=O)N(C(=O)CC(=O)Nc6ccc(OC)cc6)N=C5C)cc4)cc3)C2=O)cc1 (centres undefined)
class 0
O=c1[nH]c(=O)n(C2CC(O)C(CO)O2)cc1C#Cc1ccc(F)cc1 (centres undefined)
class 0

Moving on to the next molecule.
-- ask Please state the recorded outcome for this molecule: `COc1ccc(CNC2=N/C(=C\c3ccccc3Cl)C(=O)N2C)cc1`
-- reply class 0

Origin of the recorded values: ChEMBL document CHEMBL1201862
